Assay: Equilibrium solubility by HPLC, Form C, ambient temperature
Format: physicochemical
Conditions: Labrafil M1944CS, oil or lipid, thermodynamic from solid, Labrafil M1944CS; read-out: Solubility by HPLC
value.type: solubility (µg/mL)

[[record]]
sample_smiles = "CC(=O)N1CCc2c(C(=O)N3CCC(c4ccc(F)c(F)c4C(F)(F)F)CC3)n[nH]c2C1"
recorded_number = 280


====

Test: Equilibrium solubility by HPLC, Form C, ambient temperature
Type: physicochemical
Conditions: Vitamin E TPGS 2 wt % (100× cmc), aqueous with cosolvent or surfactant or cyclodextrin, thermodynamic from solid, Vitamin E TPGS; 2 wt % (100× cmc); read-out: Solubility by HPLC
value.type: solubility

[[record]]
compound = "CC(=O)N1CCc2c(C(=O)N3CCC(c4ccc(F)c(F)c4C(F)(F)F)CC3)n[nH]c2C1 [Compound 1]"
result = "40 µg/mL"


====

Experiment: Equilibrium solubility by HPLC, Form C, ambient temperature
Assay type: physicochemical
Conditions: FaSSIF, pH 6.77, fassif, thermodynamic from solid, FaSSIF; Final pH: 6.77; read-out: Solubility by HPLC
value.type: solubility (µg/mL)

[[record]]
sample_smiles = "CC(=O)N1CCc2c(C(=O)N3CCC(c4ccc(F)c(F)c4C(F)(F)F)CC3)n[nH]c2C1"
units_symbol = "µg/mL"
recorded_number = 5.1


====

Assay: Equilibrium solubility by HPLC, Form C, ambient temperature
Assay type: physicochemical
Settings: FaSSIF, pH 6.78, fassif, thermodynamic from solid, FaSSIF; Final pH: 6.78; read-out: Solubility by HPLC
value.type: solubility (µg/mL)

[[record]]
sample_smiles = "CC(=O)N1CCc2c(C(=O)N3CCC(c4ccc(F)c(F)c4C(F)(F)F)CC3)n[nH]c2C1"
units_symbol = "µg/mL"
recorded_number = 3.2


====

Test: Non-sink dissolution of unmicronized and micronized Form C in SLS in water
Format: physicochemical
Details: 0.366% SLS in water, aqueous with cosolvent or surfactant or cyclodextrin; read-out: nominal solubility of the API
Text: The enhancement in dissolution rate from micronized samples was likely due to the increase in surface area after micronization supported by microscopic images and particle sizing.
value.type: solubility

[[record]]
sample_smiles = "CC(=O)N1CCc2c(C(=O)N3CCC(c4ccc(F)c(F)c4C(F)(F)F)CC3)n[nH]c2C1"
value_type = "solubility"
result = "~460 µg/mL"


====

Experiment: Equilibrium solubility by HPLC, Form C, ambient temperature
Type: physicochemical
Details: organic solvent or mixture, thermodynamic from solid; EtOH, PEG 400, Propylene glycol, Capmul MCM NF, Kolliphor EL, Capmul MCM EP, Plurol Oleique CC 497, Peceol, Labrasol, SLS at 5× and 10×CMC, Transcutol HP; read-out: solubility of the API
value.type: solubility

[[record]]
sample_smiles = "CC(=O)N1CCc2c(C(=O)N3CCC(c4ccc(F)c(F)c4C(F)(F)F)CC3)n[nH]c2C1"
result = "1000 to 5000 µg/mL"

